Would you mind telling me the reported %Inh of each entry?
- Tested on: DAPK1;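 also: KINOMEscan kinase panel screen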
- testParameters: concentration: 1 μM, replicates: in singlicate; n = 1
One number for each entry, in %.

Worked cases, answers included:
{"chemicalSmiles": "CCCNC(=O)Nc1ccc(Oc2ncnc3ccn(C)c23)cc1", "%Inh, %": 10}
{"chemicalSmiles": "O=C(NCc1cccs1)c1cc(C(=O)c2c(Cl)cccc2Cl)c[nH]1", "%Inh, %": 0}
{"chemicalSmiles": "COc1cc(Nc2ccnc3ccc(C(F)(F)F)cc23)cc(OC)c1OC", "%Inh, %": 0}

The following compounds each have a reported value; give each one's %Inh.
1. Cc1c(Cn2c(C)nn3c(=O)cc(N4CCO[C@H](C)C4)nc23)cccc1C(F)(F)F
2. Cc1nc(N(C)[C@H]2CN(C(=O)CC#N)CC[C@H]2C)c2cc[nH]c2n1
3. Cc1nn2c(=O)cc(N3CCOCC3)nc2n1Cc1cccc(Cl)c1Cl
4. Cl.NS(=O)(=O)c1cccc(Nc2cc(-c3ccc(F)cc3)n[nH]2)c1
5. COc1cccc(C2=C(N(C)c3ccccc3)C(=O)NC2=O)c1

Result:
0
0
27
0
6
